- Test system: SK-BR-3
- assay-text: SRB colorimetric assay of cell growth and viability, SK-BR-3
- Assay type: cell-based, human
- settings: 48 hours exposure
- Protocol: The finality of this assay is to interrupt the growth of a “in vitro” tumor cell culture by means a continued exhibition of the cells to the sample to be testing. […] Cells are seeded in 96 well microtiter plates, at 5×10^3 cells per well in aliquots of 195 μL medium, and they are allowed to attach to the plate surface by growing in drug free medium for 18 hours. […] Optical densities are read on a automated spectrophotometric plate reader at a single wavelength of 490 nm. […]
Where a SMILES comes first, the peptide text is derived from it. Bridges are numbered along the chain shown (N, C = ends). [ ]: non-standard residue; d: D form. The star is where a group is joined. d(aIle) = CC[C@H](C)[C@@H](N)C(=O)O; d(aThr) = C[C@@H](O)[C@@H](N)C(=O)O; hCha = N[C@@H](CCC1CCCCC1)C(=O)O; Hexanoyl(5-Me) = CC(C)CCCC(=O)*; Orn = NCCC[C@H](N)C(=O)O; Dhb = C/C=C(\N)C(=O)O
Reported LC50 values are given for each entry in this list.
Reply with just the number (in nM).

- molecule: "C/C=C1\\NC(=O)[C@H](Cc2ccccc2)NC(=O)[C@@H](C(C)C)NC(=O)[C@@H]([C@@H](C)CC)NC(=O)[C@H](NC(=O)[C@H](NC(=O)[C@H](CCCN)NC(=O)[C@H]2CCCN2C(=O)[C@H](NC(=O)[C@H](CCC2CCCCC2)NC(=O)[C@@H](NC(=O)[C@H](NC(=O)CCCC(C)C)C(C)C)[C@@H](C)O)C(C)C)[C@@H](C)CC)[C@@H](C)OC(=O)[C@H](C(C)C)NC1=O [Compound 9, [hCh^11]-KF] ({Hexanoyl(5-Me)}-[dV]T[hCha][dV][dP][Orn][d(aIle)][d(aThr)][d(aIle)][dV]F[Dhb]V; ester 8-C)"
  test-system: "SK-BR-3"
  test-value: 1360

What value of LC50 has been reported for the following molecule? C/C=C1\NC(=O)[C@H](Cc2ccccc2)NC(=O)[C@@H](C(C)C)NC(=O)[C@@H]([C@@H](C)CC)NC(=O)[C@H](NC(=O)[C@H](NC(=O)[C@H](CCCN)NC(=O)[C@H]2CCCN2C(=O)[C@H](NC(=O)[C@@H](NC(=O)[C@@H](NC(=O)[C@H](NC(=O)CCCCCCCCCC)C(C)C)[C@@H](C)O)C(C)C)C(C)C)[C@@H](C)CC)[C@@H](C)OC(=O)[C@H](C(C)C)NC1=O [Compound 15, [Und^14]-KF]
468

###

- Test system: SK-BR-3
- assay-text: SRB colorimetric assay of cell growth and viability, SK-BR-3
- Type: cell-based, human
- settings: 48 hours exposure
Where a SMILES comes first, the peptide text is derived from it. Bridges are numbered along the chain shown (N, C = ends). [ ]: non-standard residue; d: D form. The star is where a group is joined. d(aIle) = CC[C@H](C)[C@@H](N)C(=O)O; d(aThr) = C[C@@H](O)[C@@H](N)C(=O)O; Hexanoyl(5-Me) = CC(C)CCCC(=O)*; Orn = NCCC[C@H](N)C(=O)O; Dhb = C/C=C(\N)C(=O)O
// NB: equality with 2 µM counts as not satisfied; only LC50 strictly below is satisfied

Use these answered entries as a reference point.
- molecule: "C/C=C1\\NC(=O)[C@H](Cc2ccccc2)NC(=O)[C@@H](C(C)C)NC(=O)[C@@H]([C@@H](C)CC)NC(=O)[C@H](NC(=O)[C@H](NC(=O)[C@H](CCCN)NC(=O)[C@H]2CCCN2C(=O)[C@H](NC(=O)[C@@H](NC(=O)[C@@H](NC(=O)[C@H](NC(=O)CCCCCCCCCCCCCCCCCCC)C(C)C)[C@@H](C)O)C(C)C)C(C)C)[C@@H](C)CC)[C@@H](C)OC(=O)[C@H](C(C)C)NC1=O [Compound 13, [Icos^14]-KF]"
  qualitative-label: "not satisfied"
- molecule: "C/C=C1\\NC(=O)[C@H](Cc2ccccc2)NC(=O)[C@@H](C(C)C)NC(=O)[C@@H]([C@@H](C)CC)NC(=O)[C@H](NC(=O)[C@H](NC(=O)[C@H](CCCN)NC(=O)[C@H]2CCCN2C(=O)[C@H](NC(=O)[C@@H](NC(=O)[C@@H](NC(=O)[C@H](NC(=O)C(F)(F)C(F)(F)C(F)(F)C(F)(F)C(F)(F)C(F)(F)F)C(C)C)[C@@H](C)O)C(C)C)C(C)C)[C@@H](C)CC)[C@@H](C)OC(=O)[C@H](C(C)C)NC1=O [Compound 26, [Pfh^14]-KF]"
  qualitative-label: "not satisfied"
- molecule: "C/C=C1\\NC(=O)[C@H](Cc2ccccc2)NC(=O)[C@@H](C(C)C)NC(=O)[C@@H]([C@@H](C)CC)NC(=O)[C@H](NC(=O)[C@H](NC(=O)[C@H](CCCN)NC(=O)[C@H]2CCCN2C(=O)[C@H](NC(=O)[C@@H](NC(=O)[C@@H](NC(=O)[C@H](NC(=O)Cc2cc(F)cc(F)c2)C(C)C)[C@@H](C)O)C(C)C)C(C)C)[C@@H](C)CC)[C@@H](C)OC(=O)[C@H](C(C)C)NC1=O [Compound 22, [3,5-dFPhAc^14]-KF]"
  qualitative-label: "not satisfied"
- molecule: "C/C=C1\\NC(=O)[C@H](Cc2ccccc2)NC(=O)[C@@H](C(C)C)NC(=O)[C@@H]([C@@H](C)CC)NC(=O)[C@H](NC(=O)[C@H](NC(=O)[C@H](CCCN)NC(=O)[C@H]2CCCN2C(=O)[C@H](NC(=O)[C@@H](NC(=O)[C@@H](NC(=O)[C@H](NC(=O)c2ccc(C(F)(F)F)cc2)C(C)C)[C@@H](C)O)C(C)C)C(C)C)[C@@H](C)CC)[C@@H](C)OC(=O)[C@H](C(C)C)NC1=O [Compound 21, [p-CF3Bza^14]-KF]"
  qualitative-label: "satisfied"
- molecule: "C/C=C1\\NC(=O)[C@H](Cc2ccccc2)NC(=O)[C@@H](C(C)C)NC(=O)[C@@H](C(C)CC)NC(=O)[C@H](NC(=O)[C@H](NC(=O)[C@H](CCCN)NC(=O)[C@H]2CCCN2C(=O)[C@H](NC(=O)[C@@H](NC(=O)[C@@H](NC(=O)[C@H](NC(=O)CCC(C)CC)C(C)C)C(C)O)C(C)C)C(C)C)C(C)CC)C(C)OC(=O)[C@H](C(C)C)NC1=O (stereo partly drawn)"
  qualitative-label: "satisfied"
- molecule: "C/C=C1\\NC(=O)[C@H](Cc2ccccc2)NC(=O)[C@@H](C(C)C)NC(=O)[C@@H]([C@@H](C)CC)NC(=O)[C@H](NC(=O)[C@H](NC(=O)[C@H](CCCN)NC(=O)[C@H]2CCCN2C(=O)[C@H](NC(=O)[C@@H](NC(=O)[C@H](NC(=O)[C@H](NC(=O)CCCC(C)C)C(C)C)[C@H](C)O)C(C)C)C(C)C)[C@@H](C)CC)[C@@H](C)OC(=O)[C@H](C(C)C)NC1=O [Compound 7, [D-Thr^12]-KF]"
  qualitative-label: "not satisfied"
- molecule: "C/C=C1\\NC(=O)[C@H](Cc2ccccc2)NC(=O)[C@@H](C(C)C)NC(=O)[C@@H]([C@@H](C)CC)NC(=O)[C@H](NC(=O)[C@H](NC(=O)[C@H](CCCN)NC(=O)[C@H]2CCCN2C(=O)[C@H](NC(=O)[C@@H](NC(=O)[C@@H](NC(=O)[C@H](NC(=O)CCCCCCC)C(C)C)[C@@H](C)O)C(C)C)C(C)C)[C@@H](C)CC)[C@@H](C)OC(=O)[C@H](C(C)C)NC1=O [Compound 18, [Oct^14]-KF]"
  qualitative-label: "satisfied"
- molecule: "C/C=C1\\NC(=O)[C@H](Cc2ccccc2)NC(=O)[C@@H](C(C)C)NC(=O)[C@@H]([C@@H](C)CC)NC(=O)[C@H](NC(=O)[C@H](NC(=O)[C@H](CCCN)NC(=O)[C@H]2CCCN2C(=O)[C@H](NC(=O)[C@H](CCCN)NC(=O)[C@@H](NC(=O)[C@H](NC(=O)CCCC(C)C)C(C)C)[C@@H](C)O)C(C)C)[C@@H](C)CC)[C@@H](C)OC(=O)[C@H](C(C)C)NC1=O [Compound 49, [Orn^11]-KF] ({Hexanoyl(5-Me)}-[dV]T[Orn][dV][dP][Orn][d(aIle)][d(aThr)][d(aIle)][dV]F[Dhb]V; ester 8-C)"
  qualitative-label: "not satisfied"

Please check: LC50 for C/C=C1\NC(=O)[C@H](Cc2ccccc2)NC(=O)[C@@H](C(C)C)NC(=O)[C@@H]([C@@H](C)CC)NC(=O)[C@H](NC(=O)[C@H](NC(=O)[C@H](CCCCN)NC(=O)[C@H]2CCCN2C(=O)[C@H](NC(=O)[C@@H](NC(=O)[C@@H](NC(=O)[C@H](NC(=O)CC[C@@H](C)CC)C(C)C)[C@@H](C)O)C(C)C)C(C)C)[C@@H](C)CC)[C@@H](C)OC(=O)[C@H](C(C)C)NC1=O [Compound 30, [Lys^8, (4S)-MeHex^14]-KF] , strictly under 2 µM or not?
satisfied
